These entries and their values trace back to patent US8987258B2.

- measured on: SIRT1 (Homo sapiens, UniProt Q96EB6)
- Sequence (Q96EB6 whole entry): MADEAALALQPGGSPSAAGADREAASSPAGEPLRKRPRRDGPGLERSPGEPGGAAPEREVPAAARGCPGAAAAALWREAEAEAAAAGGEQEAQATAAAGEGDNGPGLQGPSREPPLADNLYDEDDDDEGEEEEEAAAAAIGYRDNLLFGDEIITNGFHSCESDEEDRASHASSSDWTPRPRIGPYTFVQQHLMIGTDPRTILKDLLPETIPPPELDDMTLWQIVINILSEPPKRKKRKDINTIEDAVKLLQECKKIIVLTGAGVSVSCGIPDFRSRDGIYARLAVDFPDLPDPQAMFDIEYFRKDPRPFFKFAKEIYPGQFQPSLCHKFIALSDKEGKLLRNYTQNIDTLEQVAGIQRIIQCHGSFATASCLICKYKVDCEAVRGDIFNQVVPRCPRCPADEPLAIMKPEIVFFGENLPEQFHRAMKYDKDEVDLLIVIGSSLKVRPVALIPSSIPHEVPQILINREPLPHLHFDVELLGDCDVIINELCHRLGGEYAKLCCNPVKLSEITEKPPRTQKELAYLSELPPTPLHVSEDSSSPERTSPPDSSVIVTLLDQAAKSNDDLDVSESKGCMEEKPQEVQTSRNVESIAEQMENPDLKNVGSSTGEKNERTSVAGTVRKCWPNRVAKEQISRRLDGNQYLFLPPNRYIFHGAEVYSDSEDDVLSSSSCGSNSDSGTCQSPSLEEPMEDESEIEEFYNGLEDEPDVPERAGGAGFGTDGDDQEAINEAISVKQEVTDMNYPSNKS
- method notes: Mass spectrometry based SIRT1 deacetylase activation assay
- Type: biochemical
- reported conditions: 25 min, mass spectrometry assay, read-out: % Fold Act. (percent maximum fold activation)
- Source text: A mass spectrometry based assay was used to identify modulators of SIRT1 activity. The mass spectrometry based assay utilizes a peptide having 20 amino acid residues as follows: Ac-EE-K(biotin)-GQSTSSHSK(Ac)NleSTEG-K(5TMR)-EE-NH2 (SEQ ID NO: 1) wherein K(Ac) is an acetylated lysine residue and Nle is a norleucine. The peptide is labeled with the fluorophore 5TMR (excitation 540 nm/emission 580 nm) at the C-terminus. The sequence of the peptide substrate is based on p53 with several modifications. […]
readout type: Emax

O=C(Nc1nccs1)c1cccc2c(=O)cc(-c3cccc(C(F)(F)F)c3)oc12	< 200%
CS(=O)(=O)c1cccc(-c2cc(=O)c3cccc(C(=O)Nc4nccs4)c3o2)c1	< 200%
O=C(Nc1cccc2c(=O)cc(-c3ccccc3C(F)(F)F)oc12)c1cocn1	> 200%
O=C(Nc1cccc2c(=O)cc(-c3ccccc3F)oc12)c1cscn1	< 200%
CS(=O)(=O)c1ccc(-c2cc(=O)c3cccc(NC(=O)c4ccccn4)c3o2)cc1	< 200%

Field: next compound
Incoming: Look up and report measured Emax (SIRT1 (Homo sapiens, UniProt Q96EB6)) for the following compound: O=C(Nc1cccc2c(=O)cc(-c3c(F)cccc3Cl)oc12)c1cscn1
Outgoing: > 200%

###

- measured on: SIRT1 (Homo sapiens, UniProt Q96EB6)
- method notes: Mass spectrometry based SIRT1 deacetylase activation assay
- Assay type: biochemical
- reported conditions: 25 min, mass spectrometry assay, read-out: % Fold Act. (percent maximum fold activation)
readout type: Emax

# example entries with known answers
O=C(Nc1cccc2c(=O)cc(-c3ccccc3C(F)F)oc12)c1cnccn1	> 200%
O=C(Nc1cccc2c(=O)cc(-c3ccccc3C(F)(F)F)oc12)c1cccc(N2CCCC2)c1	> 200%
CS(=O)(=O)c1cccc(-c2cc(=O)c3cccc(NC(=O)c4cnccn4)c3o2)c1	< 200%
O=C(Nc1cccc2c(=O)cc(-c3ccccc3)oc12)c1cnccn1	< 200%
O=C(Nc1cccc2c(=O)cc(-c3ccccc3Cl)oc12)c1cccc(N2CCOCC2)c1	> 200%

Incoming: State, in one line, measured Emax of CC(C)c1ccccc1-c1cc(=O)c2cccc(NC(=O)c3cscn3)c2o1
Outgoing: > 200%

Incoming: State, in one line, measured Emax of O=C(Nc1cccc2c(=O)cc(-c3ccccc3C(F)(F)F)oc12)c1ccncn1
Outgoing: > 200%

Incoming: State, in one line, measured Emax of Cc1cnc(NC(=O)c2cccc3c(=O)cc(-c4ccccc4S(C)(=O)=O)oc23)s1
Outgoing: < 200%

Incoming: State, in one line, measured Emax of O=C(Nc1cccc2c(=O)cc(-c3ccccc3C(F)(F)F)oc12)c1cccnc1OCC(O)CO (stereo not shown)
Outgoing: > 200%

Incoming: State, in one line, measured Emax of O=C(Nc1cccc2c(=O)cc(-c3cc(F)ccc3Cl)oc12)c1cnccn1
Outgoing: < 200%

Incoming: State, in one line, measured Emax of O=C(Nc1cccc2c(=O)cc(-c3ccccc3C(F)F)oc12)c1cscn1
Outgoing: > 200%

Incoming: State, in one line, measured Emax of O=C(Nc1cccc2c(=O)cc(-c3cccc(N4CCOCC4)c3)oc12)c1cscn1
Outgoing: > 200%

Incoming: State, in one line, measured Emax of O=C(Nc1cccc2c(=O)cc(-c3cccnc3C(F)(F)F)oc12)c1cnccn1
Outgoing: > 200%

Incoming: State, in one line, measured Emax of Cc1cnc(NC(=O)c2cccc3c(=O)cc(-c4cccc(F)c4F)oc23)s1
Outgoing: < 200%

Incoming: State, in one line, measured Emax of O=C(Nc1cccc2c(=O)cc(-c3cc(F)ccc3Cl)oc12)c1cscn1
Outgoing: < 200%

Incoming: State, in one line, measured Emax of O=C(Nc1cccc2c(=O)cc(-c3ccccc3Cl)oc12)c1cccc(CN2CCOCC2)n1
Outgoing: > 200%

Incoming: State, in one line, measured Emax of CS(=O)(=O)c1ccccc1-c1cc(=O)c2cccc(NC(=O)c3ccccn3)c2o1
Outgoing: > 200%

Incoming: State, in one line, measured Emax of Cc1cnc(NC(=O)c2cccc3c(=O)cc(-c4ccc(Br)cc4)oc23)s1
Outgoing: < 200%

Incoming: State, in one line, measured Emax of O=C(Nc1cccc2c(=O)cc(-c3cccnc3C(F)(F)F)oc12)c1cscn1
Outgoing: > 200%

Incoming: State, in one line, measured Emax of O=C(Nc1cccc2c(=O)cc(-c3ccccc3Cl)oc12)c1cccc(CN2CCCC2)c1
Outgoing: > 200%

Incoming: State, in one line, measured Emax of O=C(Nc1cccc2c(=O)cc(-c3ccccc3C(F)(F)F)oc12)c1cccc(CN2CCOCC2)n1
Outgoing: > 200%

Incoming: State, in one line, measured Emax of Cc1cnc(NC(=O)c2cccc3c(=O)cc(-c4ccccc4C(F)F)oc23)s1
Outgoing: < 200%

Incoming: State, in one line, measured Emax of Cc1cnc(NC(=O)c2cccc3c(=O)cc(-c4ccccc4C(F)(F)F)oc23)s1
Outgoing: < 200%

Incoming: State, in one line, measured Emax of O=C(Nc1cccc2c(=O)cc(-c3ccccc3Cl)oc12)c1cccc(N2CCCC2)n1
Outgoing: > 200%

Incoming: State, in one line, measured Emax of O=C(Nc1cccc2c(=O)cc(-c3cccnc3)oc12)c1cscn1
Outgoing: < 200%

Incoming: State, in one line, measured Emax of O=C(Nc1cccc2c(=O)cc(-c3ccc(N4CCOCC4)cc3)oc12)c1cscn1
Outgoing: < 200%

###

- measured on: SIRT1 (Homo sapiens, UniProt Q96EB6)
- method notes: Mass spectrometry based SIRT1 deacetylase activation assay
- Format: biochemical
- reported conditions: 0.5 μM peptide substrate, 120 μM βNAD+, 10 nM SIRT1, 25 min, 25° C.
readout type: EC1.5 μM

Cc1cnc(NC(=O)c2cccc3c(=O)cc(-c4cccnc4C(F)(F)F)oc23)s1	C (EC1.5>25 μM)
CS(=O)(=O)c1ccc(-c2cc(=O)c3cccc(NC(=O)c4ccccn4)c3o2)cc1	C (EC1.5>25 μM)
O=C(Nc1ccccn1)c1cccc2c(=O)cc(-c3cccc(C(F)(F)F)c3)oc12	C (EC1.5>25 μM)

###

- measured on: SIRT1 (Homo sapiens, UniProt Q96EB6)
- method notes: Mass spectrometry based SIRT1 deacetylase activation assay
- Assay type: biochemical
- reported conditions: 0.5 μM peptide substrate, 120 μM βNAD+, 10 nM SIRT1, 25 min, 25° C.
readout type: EC1.5 μM

# example entries with known answers
O=C(Nc1cccc2c(=O)cc(-c3cc(F)ccc3Cl)oc12)c1cscn1	C (EC1.5>25 μM)
O=C(Nc1ccccn1)c1cccc2c(=O)cc(-c3cccc(OC(F)(F)F)c3)oc12	C (EC1.5>25 μM)
O=C(Nc1cccc2c(=O)cc(-c3ccccc3C(F)(F)F)oc12)c1cccc(CN2CCCC2)n1	A (EC1-5<1.0)
O=C(Nc1cccc2c(=O)cc(-c3c(F)cccc3Cl)oc12)c1cnccn1	A (EC1-5<1.0)
O=C(Nc1cccc2c(=O)cc(-c3ccccc3Cl)oc12)c1cccc(OCC(O)CO)n1 (centres unmarked)	A (EC1-5<1.0)
Cc1cnc(NC(=O)c2cccc3c(=O)cc(-c4cnccc4C(F)(F)F)oc23)s1	B (EC1.5 1-25 μM)

Incoming: Look up and report measured EC1.5 μM (SIRT1 (Homo sapiens, UniProt Q96EB6)) for the following compound: O=C(Nc1cccc2c(=O)cc(-c3ccccc3C(F)(F)F)oc12)c1cscn1
Outgoing: A (EC1-5<1.0)

Incoming: Look up and report measured EC1.5 μM (SIRT1 (Homo sapiens, UniProt Q96EB6)) for the following compound: CN1CCCC1C(=O)Nc1cccc2c(=O)cc(-c3ccccc3C(F)(F)F)oc12 (centres unmarked)
Outgoing: B (EC1.5 1-25 μM)

Incoming: Look up and report measured EC1.5 μM (SIRT1 (Homo sapiens, UniProt Q96EB6)) for the following compound: O=C(Nc1cccc2c(=O)cc(-c3ccc(N4CCOCC4)cc3)oc12)c1cscn1
Outgoing: C (EC1.5>25 μM)

Incoming: Look up and report measured EC1.5 μM (SIRT1 (Homo sapiens, UniProt Q96EB6)) for the following compound: O=C(Nc1cccc2c(=O)cc(-c3cc(F)ccc3F)oc12)c1cnccn1
Outgoing: C (EC1.5>25 μM)

Incoming: Look up and report measured EC1.5 μM (SIRT1 (Homo sapiens, UniProt Q96EB6)) for the following compound: O=C(Nc1cccc2c(=O)cc(-c3cccc(C(F)(F)F)c3)oc12)c1cscn1
Outgoing: B (EC1.5 1-25 μM)

Incoming: Look up and report measured EC1.5 μM (SIRT1 (Homo sapiens, UniProt Q96EB6)) for the following compound: Cn1cc(C(=O)Nc2cccc3c(=O)cc(-c4ccccc4C(F)(F)F)oc23)cn1
Outgoing: B (EC1.5 1-25 μM)

Incoming: Look up and report measured EC1.5 μM (SIRT1 (Homo sapiens, UniProt Q96EB6)) for the following compound: CS(=O)(=O)c1cccc(-c2cc(=O)c3cccc(C(=O)Nc4nccs4)c3o2)c1
Outgoing: C (EC1.5>25 μM)

Incoming: Look up and report measured EC1.5 μM (SIRT1 (Homo sapiens, UniProt Q96EB6)) for the following compound: O=C(Nc1cccc2c(=O)cc(-c3ccccc3C(F)F)oc12)c1cscn1
Outgoing: A (EC1-5<1.0)

Incoming: Look up and report measured EC1.5 μM (SIRT1 (Homo sapiens, UniProt Q96EB6)) for the following compound: O=C(Nc1cccc2c(=O)cc(-c3cccc(C(F)(F)F)c3)oc12)c1cnccn1
Outgoing: C (EC1.5>25 μM)

Incoming: Look up and report measured EC1.5 μM (SIRT1 (Homo sapiens, UniProt Q96EB6)) for the following compound: O=C(Nc1cccc2c(=O)cc(-c3ccccc3Cl)oc12)c1cscn1
Outgoing: A (EC1-5<1.0)

Incoming: Look up and report measured EC1.5 μM (SIRT1 (Homo sapiens, UniProt Q96EB6)) for the following compound: O=C(Nc1cccc2c(=O)cc(-c3cccc(F)c3Cl)oc12)c1cscn1
Outgoing: C (EC1.5>25 μM)
